This collection of values is drawn from patent US9663516B2.

Measured pIC50 values are reported for all entries that follow.
assayed-system: bovine cardiac myosin (Bos taurus, UniProt Q9BE39)
Sequence (Q9BE39 whole entry): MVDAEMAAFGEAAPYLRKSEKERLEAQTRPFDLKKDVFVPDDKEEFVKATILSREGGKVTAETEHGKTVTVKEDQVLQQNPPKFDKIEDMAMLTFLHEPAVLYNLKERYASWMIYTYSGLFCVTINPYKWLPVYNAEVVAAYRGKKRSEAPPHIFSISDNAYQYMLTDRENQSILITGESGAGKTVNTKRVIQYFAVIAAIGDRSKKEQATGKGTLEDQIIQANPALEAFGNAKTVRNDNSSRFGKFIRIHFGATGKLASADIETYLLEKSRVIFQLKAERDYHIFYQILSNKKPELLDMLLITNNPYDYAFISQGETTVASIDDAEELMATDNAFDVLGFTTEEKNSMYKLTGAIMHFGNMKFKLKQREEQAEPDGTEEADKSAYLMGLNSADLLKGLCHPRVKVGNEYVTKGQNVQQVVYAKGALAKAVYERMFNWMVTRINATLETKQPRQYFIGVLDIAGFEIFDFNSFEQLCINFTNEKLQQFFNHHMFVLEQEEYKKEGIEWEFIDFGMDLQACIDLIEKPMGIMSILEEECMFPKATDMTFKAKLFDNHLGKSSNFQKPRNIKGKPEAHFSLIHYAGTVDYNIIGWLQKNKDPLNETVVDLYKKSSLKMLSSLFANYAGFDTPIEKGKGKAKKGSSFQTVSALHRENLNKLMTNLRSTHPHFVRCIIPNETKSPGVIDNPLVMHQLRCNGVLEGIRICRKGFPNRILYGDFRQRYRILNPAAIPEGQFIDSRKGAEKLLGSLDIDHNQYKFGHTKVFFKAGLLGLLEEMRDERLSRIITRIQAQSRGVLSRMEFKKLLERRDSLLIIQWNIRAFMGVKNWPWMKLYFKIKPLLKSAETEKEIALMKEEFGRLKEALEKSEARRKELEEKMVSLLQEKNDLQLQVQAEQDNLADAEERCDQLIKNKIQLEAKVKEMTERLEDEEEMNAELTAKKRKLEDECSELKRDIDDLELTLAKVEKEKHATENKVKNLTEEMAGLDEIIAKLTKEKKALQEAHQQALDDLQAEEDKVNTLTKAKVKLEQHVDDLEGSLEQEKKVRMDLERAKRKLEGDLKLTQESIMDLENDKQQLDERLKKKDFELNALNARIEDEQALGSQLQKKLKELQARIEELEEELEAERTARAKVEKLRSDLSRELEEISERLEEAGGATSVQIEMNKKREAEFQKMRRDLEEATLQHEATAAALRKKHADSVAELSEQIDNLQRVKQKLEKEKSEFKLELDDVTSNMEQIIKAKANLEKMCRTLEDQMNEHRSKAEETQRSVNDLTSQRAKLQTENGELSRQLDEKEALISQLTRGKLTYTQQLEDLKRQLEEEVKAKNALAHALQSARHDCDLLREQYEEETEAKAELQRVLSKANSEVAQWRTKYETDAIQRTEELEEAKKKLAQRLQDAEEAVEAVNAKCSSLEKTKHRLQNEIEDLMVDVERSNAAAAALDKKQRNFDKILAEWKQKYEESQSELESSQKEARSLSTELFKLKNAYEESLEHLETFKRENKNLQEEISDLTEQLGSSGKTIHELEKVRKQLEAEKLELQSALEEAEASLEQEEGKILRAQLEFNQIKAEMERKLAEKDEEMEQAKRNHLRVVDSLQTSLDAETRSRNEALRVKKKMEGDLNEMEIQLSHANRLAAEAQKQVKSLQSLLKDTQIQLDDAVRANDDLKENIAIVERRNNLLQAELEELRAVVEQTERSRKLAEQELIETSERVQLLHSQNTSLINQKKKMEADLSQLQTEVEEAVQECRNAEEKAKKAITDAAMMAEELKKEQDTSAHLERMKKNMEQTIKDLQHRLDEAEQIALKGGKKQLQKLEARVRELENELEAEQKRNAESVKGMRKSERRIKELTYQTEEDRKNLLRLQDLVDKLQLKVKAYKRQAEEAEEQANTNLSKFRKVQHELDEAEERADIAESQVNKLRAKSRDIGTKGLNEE
Sequence (P85100 whole entry partner): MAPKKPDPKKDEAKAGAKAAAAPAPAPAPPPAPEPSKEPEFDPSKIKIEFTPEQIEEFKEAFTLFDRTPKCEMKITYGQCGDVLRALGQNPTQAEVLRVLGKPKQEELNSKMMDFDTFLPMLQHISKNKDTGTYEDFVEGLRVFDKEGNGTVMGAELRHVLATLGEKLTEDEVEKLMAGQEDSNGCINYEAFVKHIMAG
Sequence (Q3SZE5 whole entry partner): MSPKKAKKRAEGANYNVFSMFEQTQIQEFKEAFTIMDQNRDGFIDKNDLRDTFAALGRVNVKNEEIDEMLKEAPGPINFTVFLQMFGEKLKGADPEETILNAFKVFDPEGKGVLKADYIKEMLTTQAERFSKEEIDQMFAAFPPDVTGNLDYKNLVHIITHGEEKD
protocol-description: Myosin inhibition assay (PK/LDH-coupled ATPase, bovine cardiac myofibrils)
particulars: calcium concentration giving 50% activation, pH 6.8, read-out: bcMF pCa_6 IC50
pIC50: −log10 of the molar value.

Solved entries:
CC(C)n1c(=O)[nH]c2c(c1=O)CC[C@H](c1cc(F)cc(F)c1)N2 ... 4.82 to 6.00
CC(C)n1c(=O)[nH]c2c(c1=O)C[C@@H](Cc1ccccc1)N2 ... < 4.82
CC(C)n1c(=O)[nH]c2c(c1=O)CC[C@H](c1cccc(Cl)c1)N2 ... > 6.00

Recorded pIC50 for CC(C)n1c(=O)[nH]c2c(c1=O)C[C@H](c1ccccc1)N2 (single isomer, unassigned) with bovine cardiac myosin (Bos taurus, UniProt Q9BE39), please? 4.82 to 6.00

* * *

Quick reference for inhibition at 0.3 µM among some compounds
Tested on: adult rat ventricular myocytes
protocol-description: Cardiomyocyte contractility assay (fractional shortening, IonOptix edge detection)
Type: cell-based
particulars: Ventricular myocyte, 0.3 μM compound, 1 Hz pacing

For orientation, consider the following solved cases.
O=c1[nH]c2c(c(=O)n1-c1ccccc1)CC[C@H](c1ccc(F)c(F)c1)N2 ... < 33%
CC[C@H](C)n1c(=O)[nH]c2c(c1=O)CC[C@H](c1ccc(F)c(F)c1)N2 ... 33 to 66%
CC(C)n1c(=O)[nH]c2c(c1=O)CC[C@H](c1ccc(F)cc1)N2 ... 33 to 66%

As a next step, examine the compound that follows.
Which measured inhibition at 0.3 µM belongs to O=c1[nH]c2c(c(=O)n1-c1cc(F)cc(F)c1)CC[C@H](C1CCC(F)(F)CC1)N2 , tested on adult rat ventricular myocytes? < 33%

* * *

Entries and their IC50 values follow.
assayed-system: UniProt:Q9BE39
protocol-description: Myosin inhibition assay (PK/LDH-coupled ATPase, bovine cardiac myofibrils)
particulars: calcium concentration giving 50% activation, pH 6.8, read-out: bcMF pCa_6 IC50

O=c1[nH]c2c(c(=O)n1CC(F)(F)F)CC[C@H](c1ccccc1)N2 ... 1 to 15 µM
CCn1c(=O)[nH]c2c(c1=O)CC[C@H](c1ccc(Cl)cc1)N2 ... 1 to 15 µM
CCn1c(=O)[nH]c2c(c1=O)CC[C@H](c1cccc(F)c1)N2 ... 1 to 15 µM
O=c1[nH]c2c(c(=O)n1-c1ccccn1)CC[C@H](C1CCC(F)(F)CC1)N2 ... < 1 µM
CCn1c(=O)[nH]c2c(c1=O)CC[C@H](c1cccc(F)c1F)N2 ... > 15 µM

I have this compound here, CCn1c(=O)[nH]c2c(c1=O)CC[C@H](c1cc(F)cc(F)c1)N2 , and I need its recorded IC50. > 15 µM

Then this compound: CCC[C@]1(c2ccccc2)CCc2c([nH]c(=O)n(CC)c2=O)N1 1 to 15 µM

How about COc1cccc([C@H]2CCc3c([nH]c(=O)n(C(C)C)c3=O)N2)c1 ? 1 to 15 µM

And the next one, CC(C)n1c(=O)[nH]c2c(c1=O)CCCN2 ? > 15 µM

// repeat for Cc1ccccc1[C@@H]1CCc2c([nH]c(=O)n(C(C)C)c2=O)N1 and report > 15 µM

* * *

Entries annotated with measured IC50
assayed-system: bovine cardiac myosin (Bos taurus, UniProt Q9BE39)
protocol-description: Myosin inhibition assay (PK/LDH-coupled ATPase, bovine cardiac myofibrils)
particulars: calcium concentration giving 50% activation, pH 6.8, read-out: bcMF pCa_6 IC50
Protocol: Small molecule agents were assessed for their ability to inhibit the enzymatic activity of bovine cardiac myosin using a biochemical assay that couples the release of ADP (adenosine diphosphate) from cardiac myosin to an enzymatic coupling system consisting of pyruvate kinase and lactate dehydrogenase (PK/LDH) and monitoring the absorbance decrease of NADH (at 340 nm) as a function of time. PK converts ADP to ATP (adenosine triphosphate) by converting PEP (phosphoenolpyruvate) to pyruvate. […]

Guide cases for IC50, answers given:
CCn1c(=O)[nH]c2c(c1=O)CC[C@H](c1cc(F)ccc1F)N2 ... 1 to 15 µM
CCn1c(=O)[nH]c2c(c1=O)CC[C@](c1ccccc1)(C1CCC1)N2 ... > 15 µM
O=c1[nH]c2c(c(=O)n1-c1ccccc1)CC[C@H](c1ccc(F)cc1)N2 ... 1 to 15 µM
O=c1[nH]c2c(c(=O)n1-c1cc(F)cc(F)c1)CC[C@H](C1CCC(F)(F)CC1)N2 ... < 1 µM
CC1(n2c(=O)[nH]c3c(c2=O)CC[C@H](C2CCC(F)(F)CC2)N3)CC1 ... < 1 µM

What measured IC50 goes with Cn1c(=O)[nH]c2c(c1=O)CC[C@](C)(c1cc(F)ccc1F)N2 ? 1 to 15 µM

Do the same for CC(C)n1c(=O)[nH]c2c(c1=O)C[C@H](Cc1ccccc1)N2 please > 15 µM

// query: CC(C)n1c(=O)[nH]c2c(c1=O)CC[C@H](C1CC(F)(F)C1)N2 1 to 15 µM

* * *

assayed-system: bovine cardiac myosin (Bos taurus, UniProt Q9BE39)
protocol-description: Myosin inhibition assay (PK/LDH-coupled ATPase, bovine cardiac myofibrils)
particulars: calcium concentration giving 50% activation, pH 6.8, read-out: bcMF pCa_6 IC50
measured-parameter: IC50

Check out these entries, answers already filled in.
CCn1c(=O)[nH]c2c(c1=O)CC[C@@](c1ccccc1)(C(C)C)N2 [Compound 131] ... 1000 to 15000 nM
O=c1[nH]c2c(c(=O)n1CC(F)F)CC[C@H](c1ccc(F)cc1)N2 [Compound 73] ... 1000 to 15000 nM
O=c1[nH]c2c(c(=O)n1C1CCC1)CC[C@H](C1CCC(F)(F)CC1)N2 [Compound 31] ... < 1000 nM
O=c1[nH]c2c(c(=O)n1-c1ccc(F)cn1)CC[C@H](C1CCC(F)(F)CC1)N2 [Compound 33] ... < 1000 nM
CCn1c(=O)[nH]c2c(c1=O)CC[C@H](c1ccc(F)c(F)c1)N2 [Compound 9] ... 1000 to 15000 nM

Which measured IC50 value corresponds to CC[C@@H](C)n1c(=O)[nH]c2c(c1=O)CC[C@H](c1ccc(F)c(F)c1)N2 [Compound 83] ? < 1000 nM

Again, but for CCn1c(=O)[nH]c2c(c1=O)CC[C@@](c1ccccc1)(C1CCC1)N2 [Compound 145] < 1000 nM

Another compound: CC(C)n1c(=O)[nH]c2c(c1=O)CC[C@](C)(c1ccccc1)N2 [Compound 106] < 1000 nM

Query O=c1[nH]c2c(c(=O)n1-c1ccccn1)CC[C@H](c1ccccc1)N2 [Compound 35] next 1000 to 15000 nM

Next compound up: CCCn1c(=O)[nH]c2c(c1=O)CC[C@H](C1CCC(F)(F)CC1)N2 [Compound 30] < 1000 nM

Another compound to check: CC(C)n1c(=O)[nH]c2c(c1=O)CC[C@@](C)(c1ccccc1)N2 [Compound 107] > 15000 nM

* * *

assayed-system: UniProtKB Q9BE39
protocol-description: Myosin inhibition assay (PK/LDH-coupled ATPase, bovine cardiac myofibrils)
particulars: calcium concentration giving 50% activation, pH 6.8, read-out: bcMF pCa_6 IC50
pIC50: −log10 of the molar value.
measured-parameter: pIC50

Use the examples below as a reference point.
C[C@]1(c2cccc(F)c2)CCc2c([nH]c(=O)n(CC(F)F)c2=O)N1 [Compound 136] ... > 6.00
Cc1ccccc1[C@H]1CCc2c([nH]c(=O)n(C3(C)CC3)c2=O)N1 [Compound 122] ... 4.82 to 6.00
C[C@]1(c2cc(F)ccc2F)CCc2c([nH]c(=O)n(C3CCC3)c2=O)N1 [Compound 134] ... > 6.00

Report pIC50 for O=c1[nH]c2c(c(=O)n1-c1ccccc1)CC[C@H](c1ccccc1F)N2 [Compound 108] please. 4.82 to 6.00

* * *

assayed-system: bovine cardiac myosin (Bos taurus, UniProt Q9BE39)
protocol-description: Myosin inhibition assay (PK/LDH-coupled ATPase, bovine cardiac myofibrils)
Type: biochemical
particulars: calcium concentration giving 50% activation, pH 6.8, read-out: bcMF pCa_6 IC50
pIC50: −log10 of the molar value.
measured-parameter: pIC50

Examples with their reported pIC50 follow.
O=c1[nH]c2c(c(=O)n1-c1cc(F)cc(F)c1)CC[C@H](c1ccccc1)N2 ... 4.82 to 6.00
O=c1[nH]c2c(c(=O)n1-c1ccccc1)CC[C@H](c1ccc(F)c(F)c1)N2 ... 4.82 to 6.00
CC(C)n1c(=O)[nH]c2c(c1=O)C[C@@H](C)[C@H](c1ccccc1)N2 ... < 4.82

I would be grateful if you could share the reported pIC50 for CCn1c(=O)[nH]c2c(c1=O)CC[C@@H](c1ccc(F)c(F)c1)N2 . 4.82 to 6.00

Next record, please: O=c1[nH]c2c(c(=O)n1C1CCOCC1)CC[C@H](c1ccccc1)N2 4.82 to 6.00

Then what about the compound CC(C)n1c(=O)[nH]c2c(c1=O)CC[C@H](CC1CC(F)(F)C1)N2 ? 4.82 to 6.00

Now give it for CC(C)n1c(=O)[nH]c2c(c1=O)CC(F)(F)[C@](C)(c1ccccc1)N2 too. 4.82 to 6.00

Another compound: O=c1[nH]c2c(c(=O)n1-c1ccccc1)C(O)C[C@H](c1ccc(F)cc1)N2 (some centres unmarked) < 4.82

Then what about the compound CC1(n2c(=O)[nH]c3c(c2=O)CC[C@@H](c2ccccc2F)N3)CC1 ? < 4.82

What do we get for C[C@]1(c2cc(F)ccc2F)CCc2c([nH]c(=O)n(-c3cc(F)cc(F)c3)c2=O)N1 ? > 6.00

Try the compound COC(=O)N1CCC(n2c(=O)[nH]c3c(c2=O)CC[C@](C)(c2ccc(F)c(F)c2)N3)CC1 4.82 to 6.00
